The origin of these recorded values is PubChem BioAssay (NCI).

Tested on: OVCAR-8 ovarian
Experiment summary: NCI-60 one-dose screen, 48 h
Assay setup: 10 µM unless noted
The panel holds about 83,000 compounds, 20% with a hit somewhere; the sample as a whole holds those more often. Active and inactive are the calls of the source. The calls were made as follows: active = growth percent below 10; inactive = the rest.
Your answer must be one of the following: active, inactive

// known answers, use as guide
>  <Compound>
CC(C)CCC1C(=O)NC(=O)NC1=O

>  <Cat>
inactive

$$$$
>  <Compound>
O=[N+]([O-])c1ccc2scc3c4ccccc4nc-3c2c1

>  <Cat>
active

$$$$
>  <Compound>
C=CC[PH+](c1ccccc1)c1ccccc1.C=CC[PH+](c1ccccc1)c1ccccc1.[Pt+2].[S-]c1nc2ccccc2[nH]1.[S-]c1nc2ccccc2[nH]1

>  <Cat>
active

$$$$
>  <Compound>
C[C@]12CC[C@@H](OC(=O)N(CCCl)N=O)C[C@@H]1CC[C@@H]1[C@@H]2CC[C@]2(C)C(=O)CC[C@@H]12

>  <Cat>
inactive

$$$$
>  <Compound>
O=S(=O)(F)c1cccc(Cl)c1C[P+](c1ccccc1)(c1ccccc1)c1ccccc1

>  <Cat>
inactive

$$$$

Field: next compound
Can you look up the reported call for CC(=O)C(N)Cc1ccccc1 (stereo not drawn) for me?
inactive

---

Overview of reported growth across a group of molecules:
Test system: OVCAR-4 ovarian
Experiment summary: NCI-60 one-dose screen, 48 h (100 = growth as untreated, 0 = no growth, -100 = all killed)
Assay setup: 10 µM unless noted
Compounds without any hit were thinned out: in the full panel of roughly 83,000, 20% have a hit.
Provide only the numeric value, understood in %.

>  <Molecule>
Oc1ccccc1C=NCCN=Cc1ccccc1O.[Fe]

>  <System under test>
OVCAR-4 ovarian

>  <Reported>
117

$$$$
>  <Molecule>
COc1ccc(O)c2c(=O)c3c(OC)cc4c(c3oc12)[C@@H]1C=CO[C@@H]1O4

>  <System under test>
OVCAR-4 ovarian

>  <Reported>
40.8

$$$$
>  <Molecule>
CC1(C)N(Nc2ccccc2)C(=O)C2CCCN21 (configuration not stated)

>  <System under test>
OVCAR-4 ovarian

>  <Reported>
70.8

$$$$
>  <Molecule>
NC(N)=NC(N)=Nc1ccc(Cl)cc1

>  <System under test>
OVCAR-4 ovarian

>  <Reported>
96.3

$$$$
>  <Molecule>
C[N+]1(C)CCCC1c1cccnc1 (configuration not stated)

>  <System under test>
OVCAR-4 ovarian

>  <Reported>
107

$$$$

Field growth (entry `CC[C@H](C)[C@H](NC(=O)c1cnccn1)C(=O)N(C)[C@H](C[C@@H](OC(C)=O)c1nc(C(=O)N[C@@H](Cc2ccccc2)C[C@H](C)C(=O)OC)cs1)C(C)C` ) reads 45.9

Kindly note the recorded growth for C[N+]12CCC34C5=CC(=O)C(=O)C=C5[N+]5(C)C(=O)CC6OCC=C(C1)C(CC32)C6C45 (configuration not stated) , which is 101

growth in this record for `CCCn1cc2c3c(cccc31)[C@H]1C[C@@H](C)CN(C)[C@@H]1C2` : 80.6

---

System: ACHN renal
Experiment summary: NCI-60 one-dose screen, 48 h
Assay setup: 10 µM unless noted
The panel holds about 83,000 compounds, 20% with a hit somewhere; the sample as a whole holds those more often. The source made the active and inactive calls. How the source made its calls: active means growth percent below 10; inactive means the rest.
Your answer must be one of the following: t for active, f for inactive

Please indicate how the test categorized `C[C@]12CC[C@H]3[C@@H](CC=C4c5nc(N)sc5CC[C@@]43C)[C@@H]1CC[C@@H]2O` .
f

I'd appreciate the recorded outcome for `Cc1cc[c-]cc1.Fc1c[c-]c(-c2ccccn2)c(F)c1.N#CCC[PH+](CCC#N)c1ccccc1.[Pt+2]` from this test.
t

Lab log entry: `Cc1nnc([S-])o1.[Au+].c1ccc([PH+](c2ccccc2)c2ccccc2)cc1` — outcome as called in the assay?
t
